tgt: human IL-12 receptor (IL-12Rβ1 and IL-12Rβ2) on HEK-Blue IL-12 cells (human, UniProt P42701 24-662; Q99665 24-862)
Sequence (Q99665 24-862, chain 2 of 2, other chains not shown): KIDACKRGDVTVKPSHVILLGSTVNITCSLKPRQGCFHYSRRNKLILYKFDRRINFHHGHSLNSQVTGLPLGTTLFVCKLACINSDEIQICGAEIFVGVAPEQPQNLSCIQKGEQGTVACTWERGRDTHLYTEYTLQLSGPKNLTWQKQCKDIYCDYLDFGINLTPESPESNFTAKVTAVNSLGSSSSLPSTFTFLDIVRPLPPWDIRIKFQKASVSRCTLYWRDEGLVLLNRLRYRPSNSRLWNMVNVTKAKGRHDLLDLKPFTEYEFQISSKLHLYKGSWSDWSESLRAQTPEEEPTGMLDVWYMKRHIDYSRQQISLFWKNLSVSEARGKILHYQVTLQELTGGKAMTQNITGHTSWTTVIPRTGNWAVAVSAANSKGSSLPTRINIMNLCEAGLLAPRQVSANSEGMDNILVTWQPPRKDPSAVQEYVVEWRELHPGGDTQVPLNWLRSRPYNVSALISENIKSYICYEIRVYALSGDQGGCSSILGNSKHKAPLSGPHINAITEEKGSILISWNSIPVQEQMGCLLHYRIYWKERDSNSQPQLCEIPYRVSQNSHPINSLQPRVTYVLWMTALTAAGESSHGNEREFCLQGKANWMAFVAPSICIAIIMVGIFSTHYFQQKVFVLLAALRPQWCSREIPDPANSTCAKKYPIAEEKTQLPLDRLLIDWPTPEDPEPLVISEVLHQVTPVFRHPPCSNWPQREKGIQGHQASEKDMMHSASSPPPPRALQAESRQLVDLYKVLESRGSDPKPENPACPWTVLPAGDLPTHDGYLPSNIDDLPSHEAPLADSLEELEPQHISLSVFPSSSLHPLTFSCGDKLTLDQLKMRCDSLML
test_summary: cell-based or functional assay
quantity_name: Max Absorbance
Give bare numbers.

Fill blank: measured Max Absorbance of the binder DGL594 (bispecific antibody, V domains shown) V domain 1: EVQLVESGGGLVQAGGSLRLSCAASGSKFSFNAMGWYRQTPGKQRELVAIIINGDMINYADSVKGRFTISRDNAKNTMYLQMNSLKPEDTAVYYCKMTRYVYDYWGQGTQVTVEP V domain 2: QVQLVESGGGLVQPGGSLRLSCAASGFTFSSKAMHWFRQAPGKGLEWVSSINSGGAITYYKDSVKGRFTVSRDNAKNILYLEMNSLKPEDTALYYCATDTDGRTRGQGTQVTVEP is ____.
0.33

Next record, please: DGL579 (bispecific antibody, V domains shown) V domain 1: QVQLVESGGGLVQAGGSLRLSCAASRSISSFNEMAWYRQAPGEQRELVATIVSTVGFTNYADSVKGRFTISRDNAKNTVYLQMNSLKAEDTAVYYCNARRISTDYWGQGTQVTVEP V domain 2: QVQLVESGGGLVQAGGSLRLSCAASGRTFSSYAMGWFRQAPGKEREFVSAISWSGLSTYYVESVQGRFTISRDNAKNTVYLQMNSLKPEDTAVYYCAASRIYTNYVARSYEYDDWGQGTQVTVEP
0.36

Next record, please: DGL478 (bispecific antibody, V domains shown) V domain 1: QVQLVESGGGLVQAGGSLRLSCAAPGRYAVGWFRQAPGKEYEFVAAITVSGGSKYYEDSVKGRFAISRDNAKNTVYLQMNSLKAEDTAVYYCAARTPKFGSGWYNRRGEYDYWGQGTQVTVEP V domain 2: QVQLVESGGGLVQAGGSLRLSCAASGRIFSAYRMGWFRQAPGKEREFVAGITWRGQTTYYAASVKGRFTISKDNAKKTVYLQMNSLKPEETAVYYCAVETNGLGRWDRPSEYDYWGQGTQVTVEP
0.4

Next record, please: DGL575 (bispecific antibody, V domains shown) V domain 1: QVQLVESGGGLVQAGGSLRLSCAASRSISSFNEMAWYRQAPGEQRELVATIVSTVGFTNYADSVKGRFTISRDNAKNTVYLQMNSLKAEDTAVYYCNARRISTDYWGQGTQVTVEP V domain 2: QVQLQESGPGLVKPSQTLSLTCTVSGGSITTNYYYWSWIRQPPGKGLEWMGAIAYSGSTYYSPSLKSRTSISRDTSKNQFTLQLSSVTPEDTAVYYCASGINFYSNYPTLNEYDYWGQGTQVTVEP
0.43

Now turn to the next binder.
Fill blank: measured Max Absorbance of the binder DGL479 (bispecific antibody, V domains shown) V domain 1: QVQLVESGGGLVQAGGSLRLSCAAPGRYAVGWFRQAPGKEYEFVAAITVSGGSKYYEDSVKGRFAISRDNAKNTVYLQMNSLKAEDTAVYYCAARTPKFGSGWYNRRGEYDYWGQGTQVTVEP V domain 2: QVQLVESGGGLVQAGGSLRLSCAASGRTFSSYAMGWFRQAPGKEREFVSAISWSGLSTYYVESVQGRFTISRDNAKNTVYLQMNSLKPEDTAVYYCAASRIYTNYVARSYEYDDWGQGTQVTVEP is ____.
0.29
